# Tested on: PRMT1 (protein arginine N-methyltransferase 1)
# test description: PRMT1 binders on small-molecule microarrays, primary screen, biochemical, small-molecule microarray, 635 nm fluorescence (AID 1088);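 note: binding of Prmt1 protein to compounds spotted on small-molecule microarray slides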
# condition summary: small-molecule microarray binding, higher = more signal
experimental readout: composite z-score
Give the figure only, with no unit attached.

Query for PRMT1 (protein arginine N-methyltransferase 1): what composite z-score does the record show for COc1cc(OC)c(C(O)C2C=CC3C(=O)NC(=O)C3N2Nc2ccc(Cl)cc2Cl)cc1Br (stereo not drawn) ?
0.743

Query for PRMT1 (protein arginine N-methyltransferase 1): what composite z-score does the record show for "COc1ccc([C@H]2C[C@H]3C(Br)=C[C@@H]2C(=O)[C@]32CO2)cc1" ?
-0.431

Query for PRMT1 (protein arginine N-methyltransferase 1): what composite z-score does the record show for "CC(C)C[C@@H]1NC(=O)[C@@H]2C[C@H](C(=O)NCCCCCN)[C@H](c3cccc(OCCO)c3)N2C1=O" ?
1.3

Query for PRMT1 (protein arginine N-methyltransferase 1): what composite z-score does the record show for "O=C1O[C@H](c2ccccc2)[C@H](c2ccccc2)N2[C@H]1[C@@H](C(=O)Nc1nc3ccccc3s1)[C@]1(C(=O)Nc3ccc(C#CC4(O)CCCCCC4)cc31)[C@H]2c1ccc(OCCO)cc1" ?
1.56

Query for PRMT1 (protein arginine N-methyltransferase 1): what composite z-score does the record show for "CCCC[C@H]1OB(O)C[C@H]2C1=C(COc1ccccc1)C[C@H]1C(=O)N(C)C(=O)[C@H]12" ?
-0.0361

Query for PRMT1 (protein arginine N-methyltransferase 1): what composite z-score does the record show for CCCCCN1CC=CC23O[C@@H]4/C=C\CCCOC(=O)C4[C@H]2C(=O)N(C(CO)C(C)C)[C@@H]3C1=O (stereo partly drawn) ?
0.0207

Query for PRMT1 (protein arginine N-methyltransferase 1): what composite z-score does the record show for "CN(C)C(=O)[C@@]1(Cc2ccccc2CN=[N+]=[N-])N=C(c2ccc(OCCCO)cc2)O[C@H]1c1ccccc1" ?
1.32

Query for PRMT1 (protein arginine N-methyltransferase 1): what composite z-score does the record show for "COCCOC(=O)N1C(=O)[C@@]2(c3cc(C#CC4=CCCCC4)ccc31)[C@H](C(=O)N1CCc3cc(OC)c(OC)cc3C1)[C@H]1C(=O)O[C@H](c3ccccc3)[C@H](c3ccccc3)N1[C@@H]2c1ccc(OCCO)cc1" ?
1.55

Query for PRMT1 (protein arginine N-methyltransferase 1): what composite z-score does the record show for "CC(=O)NCCCC[C@@H]1NC(=O)[C@@H]2C[C@H](C(=O)NCCCCN(C)C)[C@H](c3cccc(OCCO)c3)N2C1=O" ?
0.558

Query for PRMT1 (protein arginine N-methyltransferase 1): what composite z-score does the record show for CS(=O)(=O)CCOC(=O)C1=CC(CCCO)=CC(c2ccc(CN3CCCC3)cc2)N(Cc2cc3c(cc2Br)OCO3)C=C1C(=O)OCCS(C)(=O)=O (stereo not drawn) ?
1.46

Query for PRMT1 (protein arginine N-methyltransferase 1): what composite z-score does the record show for O=C(C1N=C(c2ccc(OCCCO)cc2)N(c2ccccc2)O1)N1CCOCC1 (stereo not drawn) ?
1.55

Query for PRMT1 (protein arginine N-methyltransferase 1): what composite z-score does the record show for "COC(=O)[C@@]1(Cc2ccc(OC)cc2)[C@H]2c3cc(C(=O)N4CCCC4)n(Cc4ccsc4Br)c3C[C@H]2CN1C(=O)c1ccccc1" ?
-0.356

Query for PRMT1 (protein arginine N-methyltransferase 1): what composite z-score does the record show for "CCOC(=O)[C@H]1C/C=C/C[C@H](C(=O)OCC)C(=O)O[C@H]2[C@@H](OC)O[C@H](CO)[C@@H](OC(=O)Nc3cccc(F)c3)[C@@H]2OC1=O" ?
1.11
